Hey, just so you know, these numbers are from the supplement of paper PMC11451515.

# System: P12-Ichikawa
# method: cell viability relative to DMSO control; higher = less cytotoxic
# setup.conditions: RPMI 5 mM glucose + 10% FBS; 48 h; 0.0211 µM
readout.kind: cell viability (%)
Express your answer in %, writing the number without its unit.

Check out these entries, answers already filled in.
[[record]]
compound = "CNc1nc(Nc2cnn([C@H]3CCN(C4COC4)C[C@@H]3F)c2Cl)ncc1C(F)(F)F"
value_measured = 106

[[record]]
compound = "N[C@@H]1CONC1=O"
value_measured = 102

[[record]]
compound = "Cc1csc(-c2nnc(Nc3ccc(Oc4ncccc4-c4ccnc(N)n4)cc3)c3ccccc23)c1"
value_measured = 22.3

[[record]]
compound = "CC[C@@H]([C@H](C)O)n1ncn(-c2ccc(N3CCN(c4ccc(OCC5CO[C@@](Cn6cncn6)(c6ccc(F)cc6F)C5)cc4)CC3)cc2)c1=O (some centres not stated)"
value_measured = 97.8

[[record]]
compound = "C[C@@H](CN1CC(=O)NC(=O)C1)N1CC(=O)NC(=O)C1"
value_measured = 116

[[record]]
compound = "COC1=CC=C(C(=C1)OC(C)C)C/2=N/[C@@H]([C@@H](N2C(=O)N3CCNC(=O)C3)C4=CC=C(Cl)C=C4)C5=CC=C(Cl)C=C5"
value_measured = 119

[[record]]
compound = "CC(N[C@H]1CCCC[C@@H]1NC(=O)c1ccc(Cl)cc1)c1cccc2ccccc12 (some centres not stated)"
value_measured = 118

[[record]]
compound = "OCC(O)C(O)C(O)CO (configuration not stated)"
value_measured = 95.4

[[record]]
compound = "COc1ccc2c(c1)[C@]13CCCCC1C(C2)N(C)CC3 (some centres not stated)"
value_measured = 124

[[record]]
compound = "Cc1cccc(Nc2ccncc2[S+](=O)([O-])NC(=O)NC(C)C)c1"
value_measured = 94.2


*Q* For the compound O=C(CCCN1CCN(c2ccc(F)cc2)CC1)NC1c2ccccc2CSc2ccccc21 (configuration not stated) , give its reported cell viability.
*A* 126

*Q* Identify the reported cell viability for the following entry. Nc1ccc([S+](=O)([O-])Nc2ccnn2-c2ccccc2)cc1
*A* 96

*Q* Return cell viability (reported value) for this compound: O=C(O)c1cccnc1Nc1cccc(C(F)(F)F)c1
*A* 120

*Q* // Input: CCOC(=O)C(C)OC1=CC=CC2=C1\C=C/N(CC(=O)NC3=CC=C4OCCOC4=C3)C2=O (configuration not stated) . Output its cell viability only.
*A* 91.7

*Q* Respond only with cell viability recorded for C[C@@H]1CCO[C@H]2CN\3/C=C(/C(=O)NCC4=C(F)C=C(F)C=C4)C(=O)\C(=C3C(=O)N12)O
*A* 105

*Q* Give reported cell viability value for COc1cc(C(=O)N2CC[C@@H](O)[C@@H](N)C2)cc2nc(-c3cc4ccccc4n3CC3CC3)n(C)c12
*A* 122

*Q* Please indicate cell viability recorded for CC12CC3CC(C)(C1)CC(N)(C3)C2
*A* 120
